src = the supplement of paper PMC4466140

- measurement target: AgBem1-D1
- protocol description: SPOT peptide array binding signal intensity (averaged, normalized) (arbitrary units (background-subtracted, floor 0; scale differs between SH3 domains)); higher = stronger binding of the SH3 domain to the peptide
Below, each entry is listed alongside its reported SPOT peptide array binding signal intensity.
metric: SPOT peptide array binding signal intensity

INSERT INTO results (binder, recorded_result) VALUES
  ('DDEDVPPQLPTRTKS', 1),
  ('QQNRPLPQLPNRNNR', 98.5),
  ('LRWRHKFFLPAIAAI', 52.5),
  ('MARRRLPDRPPNGIG', 143),
  ('NRARYLPQNPDIIAG', '≤ 0'),
  ('TKIRRRPQQPLTDFT', 32),
  ('EREKALPPIPFTTTL', 71),
  ('TTNRGPPPLPPRANV', 53.5),
  ('GKKVRPLLVLLLSRA', '≤ 0'),
  ('LYEAMPPTLPHRDWK', 13.5),
  ('RPVPRRPSQPLNTLS', 68.5),
  ('IHTRRPSSTSQYLIR', 254),
  ('RRRDFGAPANKRPRR', 179),
  ('DTFLPPPPPPPSNFE', '≤ 0'),
  ('MPAPPPPPPPPPGAF', '≤ 0');
